Reported Fold increase over parent (IgG KD) values are given for each entry in this list.
Biological target: T1, cynomolgus MCSP D3 (cynomolgus, UniProt Q6UVK1 1582-2224 (human entry), limits assumed)
T1 construct: Recombinant, captured through anti-Penta His in the avidity set-up; also called Cyno MCSP; cynomolgus homologue
T1 chain: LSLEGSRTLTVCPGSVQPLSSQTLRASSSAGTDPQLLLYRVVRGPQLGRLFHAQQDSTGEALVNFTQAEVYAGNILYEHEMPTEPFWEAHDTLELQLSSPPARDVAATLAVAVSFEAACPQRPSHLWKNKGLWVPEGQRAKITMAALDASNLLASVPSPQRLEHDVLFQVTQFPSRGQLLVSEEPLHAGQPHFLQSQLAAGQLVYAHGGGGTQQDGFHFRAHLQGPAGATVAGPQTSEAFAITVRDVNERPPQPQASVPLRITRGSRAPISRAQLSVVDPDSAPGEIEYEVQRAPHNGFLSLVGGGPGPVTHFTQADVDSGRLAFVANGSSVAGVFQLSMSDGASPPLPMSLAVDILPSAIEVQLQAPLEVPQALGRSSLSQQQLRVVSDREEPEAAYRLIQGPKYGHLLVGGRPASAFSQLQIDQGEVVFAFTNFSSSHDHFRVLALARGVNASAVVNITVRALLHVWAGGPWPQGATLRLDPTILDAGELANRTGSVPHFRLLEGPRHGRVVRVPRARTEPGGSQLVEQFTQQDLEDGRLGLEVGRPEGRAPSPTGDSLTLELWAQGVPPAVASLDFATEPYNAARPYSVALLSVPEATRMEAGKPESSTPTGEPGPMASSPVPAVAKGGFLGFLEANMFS
Test: SPR ProteOn XPR36; parental M4-3/ML2 IgG KD against variant IgG KD
A number alone suffices; assume fold.

INSERT INTO assay_data (binder, recordednumber) VALUES
  ('M4-3/ML2(C5) IgG (antibody, V domains shown, Human IgG1 format, purified from mammalian production) VH: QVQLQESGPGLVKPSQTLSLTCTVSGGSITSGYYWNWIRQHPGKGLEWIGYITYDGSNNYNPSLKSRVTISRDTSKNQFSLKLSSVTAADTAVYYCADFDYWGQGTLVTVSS VL: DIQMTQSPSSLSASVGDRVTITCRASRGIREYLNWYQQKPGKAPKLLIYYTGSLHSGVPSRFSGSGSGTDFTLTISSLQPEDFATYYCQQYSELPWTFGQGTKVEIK', 2);

Data point: M4-3/ML2(E10/G3) IgG (antibody, V domains shown, Human IgG1 format, purified from mammalian production) VH: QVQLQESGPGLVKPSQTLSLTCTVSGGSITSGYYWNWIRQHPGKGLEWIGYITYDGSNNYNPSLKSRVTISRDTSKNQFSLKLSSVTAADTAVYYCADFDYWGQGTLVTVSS VL: DIQMTQSPSSLSASVGDRVTITCRASYGIRGYLNWYQQKPGKAPKLLIYYTSSLHSGVPSRFSGSGSGTDFTLTISSLQPEDFATYHCQQYSALPWTFGQGTKVEIK ; Fold increase over parent (IgG KD) = 2.2

Data point: M4-3(C1)/ML2(E10) IgG (antibody, V domains shown, Human IgG1 format, produced in HEK293-EBNA) VH: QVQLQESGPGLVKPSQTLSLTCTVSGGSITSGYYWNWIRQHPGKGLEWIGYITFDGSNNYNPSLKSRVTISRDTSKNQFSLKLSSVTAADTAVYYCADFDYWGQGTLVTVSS VL: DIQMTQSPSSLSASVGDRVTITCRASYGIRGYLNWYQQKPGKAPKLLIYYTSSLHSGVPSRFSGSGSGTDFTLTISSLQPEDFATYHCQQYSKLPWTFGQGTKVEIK ; Fold increase over parent (IgG KD) = 3.3

Data point: M4-3(A7)/ML2(G3) IgG (antibody, V domains shown, Human IgG1 format, purified from mammalian production) VH: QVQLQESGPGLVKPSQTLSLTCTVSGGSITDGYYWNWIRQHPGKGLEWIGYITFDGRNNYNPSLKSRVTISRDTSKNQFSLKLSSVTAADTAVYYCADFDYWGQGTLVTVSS VL: DIQMTQSPSSLSASVGDRVTITCRASQGIRNYLNWYQQKPGKAPKLLIYYTSSLHSGVPSRFSGSGSGTDYTLTISSLQPEDFATYYCQQYSALPWTFGQGTKVEIK ; Fold increase over parent (IgG KD) = 10

Data point: M4-3(B7)/ML2 IgG (antibody, V domains shown, Human IgG1 format, purified from mammalian production) VH: QVQLQESGPGLVKPSQTLSLTCTVSGGSITSGYYWNWIRQHPGKGLEWIGYITFDGINNYNPSLKSRVTISRDTSKNQFSLKLSSVTAADTAVYYCADFDYWGQGTLVTVSS VL: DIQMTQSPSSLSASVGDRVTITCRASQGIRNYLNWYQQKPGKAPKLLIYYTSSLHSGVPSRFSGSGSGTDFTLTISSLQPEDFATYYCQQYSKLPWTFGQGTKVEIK ; Fold increase over parent (IgG KD) = 2.9

Data point: M4-3(C1)/ML2(G3) IgG (antibody, V domains shown, Human IgG1 format, produced in HEK293-EBNA) VH: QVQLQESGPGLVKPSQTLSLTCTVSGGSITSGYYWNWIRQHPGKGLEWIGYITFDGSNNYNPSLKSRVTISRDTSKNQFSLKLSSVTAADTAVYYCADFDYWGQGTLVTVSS VL: DIQMTQSPSSLSASVGDRVTITCRASQGIRNYLNWYQQKPGKAPKLLIYYTSSLHSGVPSRFSGSGSGTDYTLTISSLQPEDFATYYCQQYSALPWTFGQGTKVEIKR ; Fold increase over parent (IgG KD) = 10
